Field: melting point. Provide a value for each of the compounds that follow.

Incoming: Please look up its melting point: N#CCCCn1c(CN2C(=O)C3(CCN(C(=O)OCCO)CC3)c3ccncc32)cc2cc(Cl)ccc21 [Compound 147]
Outgoing: 144.55 °C

Incoming: State the recorded melting point for this entry: CS(=O)(=O)CCCn1c(CN2C(=O)C3(CN(S(=O)(=O)C4CC4)C3)c3ccccc32)nc2cc(Cl)ccc21 [Compound 29]
Outgoing: 191.15 °C

Incoming: Quick one: melting point of CS(=O)(=O)CCCn1c(CN2C(=O)C3(CCN(S(=O)(=O)c4cccs4)CC3)c3ccccc32)nc2cc(Cl)ccc21 [Compound 102] ?
Outgoing: 233.06 °C

Incoming: // query melting point value for entry COC(=O)N1CCC2(CC1)C(=O)N(Cc1cc3cc(Cl)ccc3n1CCCS(C)(=O)=O)c1cnccc12 [Compound 55]
Outgoing: 234.28 °C

Incoming: For the compound N#CCCCn1c(CN2C(=O)C3(CN(S(=O)(=O)C4CC4)C3)c3ccccc32)nc2cc(Cl)ccc21 [Compound 180] , what melting point is on record?
Outgoing: 190.42 °C

Incoming: Name the recorded melting point for CS(=O)(=O)CCCn1c(CN2C(=O)C3(CCN(S(=O)(=O)C4CC4)CC3)c3ccccc32)nc2cc(Cl)ccc21 [Compound 35] .
Outgoing: 194.85 °C

Incoming: I am curious: what melting point value has been reported for CC(=O)N1CC2(C1)C(=O)N(Cc1nc3cc(Cl)ccc3n1CCCS(C)(=O)=O)c1ccccc12 [Compound 72] ?
Outgoing: 226.51 °C
